Measured selectivity ratio by item
Assay: Selectivity index, ratio of GI50 for human HeLa cells to MIC for active stage of Mycobacterium tuberculosis H37Ra ATCC 25177
Assay type: toxicity, cell-based
Conditions: read-out: Selectivity Index

- item.smiles: "CCCCCCCCn1c(SCCCn2cnc3sc4c(c3c2=O)CCCC4)nc(-c2cc(OC)c(OC)c(OC)c2)c(C#N)c1=O"
  selectivity ratio: "> 3"
- item.smiles: "COc1cc(-c2nc(SCCCn3cnc4sc5c(c4c3=O)CCCC5)n(CCC(F)(F)C(F)(F)C(F)(F)C(F)(F)C(F)(F)C(F)(F)F)c(=O)c2C#N)cc(OC)c1OC"
  selectivity ratio: "> 3"
- item.smiles: "COc1cc(-c2nc(SCCCn3cnc4sc5c(c4c3=O)CCCC5)n(Cc3c(F)c(F)c(F)c(F)c3F)c(=O)c2C#N)cc(OC)c1OC"
  selectivity ratio: "> 3"

Cited source for all entries: ChEMBL document CHEMBL3992538
